Each recorded value in this set is attributed to patent US20120184594A1.

Target: recombinant human MT1 receptor (Homo sapiens)
Construct: expressed in transfected cells; host or cells: unnamed cell line co-expressing mitochondrial apoaequorin and the Gα16 subunit
Experiment: Agonist activity on MT1 receptors (aequorin luminescence, Gα16 co-expressing cell line)
Type: cell-based
Settings: compound at 1 nM; percentage activity with respect to the reference agonist at its EC100
Experimental: Determination of the agonist activity on MT1 receptors […] The trial protocol for the screening of possible agonists consists in collecting the cells and keeping them in suspension overnight in the presence of coelenterazine in order to reconstitute aequorin. On the following day the cells are injected on a plate where the compounds to be screened are diluted, and the luminescence released is read immediately. […]
Experimental Endpoint: MT1 agonism 1 nM

[[record]]
molecule = "COc1ccc2[nH]cc(CCNC(C)=O)c2c1 [Melatonin, reference compound]"
experimental_endpoint = "MT1 agonism 1 nM"
reading = "51.8%"

[[record]]
molecule = "COc1cccc(N2CC[C@H](NC(=O)CC(C)C)C2)c1"
experimental_endpoint = "MT1 agonism 1 nM"
reading = "50.1%"

[[record]]
molecule = "CCC(=O)N[C@H]1CCN(c2cccc(OC)c2)C1"
experimental_endpoint = "MT1 agonism 1 nM"
reading = "46.7%"

[[record]]
molecule = "COc1cccc(N2CC[C@H](NC(C)=O)C2)c1"
experimental_endpoint = "MT1 agonism 1 nM"
reading = "34.4%"

[[record]]
molecule = "CCC(=O)NCC[C@@H]1CCc2ccc3c(c21)CCO3 [Ramelteon, reference compound]"
experimental_endpoint = "MT1 agonism 1 nM"
reading = "50%"


====

Some compounds, each annotated with its measured concentration at 15 min.
Assay: Rat plasma levels and brain/plasma ratio after administration
Assay type: in vivo
Details: plasma, 15 min after administration of 1 mg/Kg
Description: Moreover, the compounds of the present invention advantageously provide relevant pharmacokinetic improvements.
Experimental Endpoint: concentration at 15 min

[[record]]
compound = "CCC(=O)NCC[C@@H]1CCc2ccc(OC)cc21 [reference compound]"
experimental_endpoint = "concentration at 15 min"
reading = "10.1 ng/mL"

[[record]]
compound = "COc1cccc(N2CC[C@H](NC(=O)CC(C)C)C2)c1"
experimental_endpoint = "concentration at 15 min"
reading = "15.1 ng/mL"


====

molecular target: recombinant human MT1 receptor (Homo sapiens, UniProt P48039); construct: expressed in transfected cells; host or cells: unnamed cell line co-expressing mitochondrial apoaequorin and the Gα16 subunit; assay: Agonist activity on MT1 receptors (aequorin luminescence, Gα16 co-expressing cell line); format: cell-based; settings: compound at 100 nM; percentage activity with respect to the reference agonist at its EC100; in %
Sequence (P48039 whole entry): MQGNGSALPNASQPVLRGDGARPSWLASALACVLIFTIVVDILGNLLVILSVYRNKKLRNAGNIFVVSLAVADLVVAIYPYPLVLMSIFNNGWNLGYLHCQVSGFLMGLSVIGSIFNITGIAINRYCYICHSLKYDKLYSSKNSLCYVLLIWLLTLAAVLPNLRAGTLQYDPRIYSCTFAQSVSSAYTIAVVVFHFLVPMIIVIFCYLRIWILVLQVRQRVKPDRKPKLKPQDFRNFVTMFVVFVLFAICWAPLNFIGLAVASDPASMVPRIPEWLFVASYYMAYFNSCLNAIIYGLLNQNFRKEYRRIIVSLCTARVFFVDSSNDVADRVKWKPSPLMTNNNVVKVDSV
Experimental Endpoint: MT1 agonism 100 nM

[[record]]
compound = "CCC(=O)NCC[C@@H]1CCc2ccc3c(c21)CCO3 [Ramelteon, reference compound]"
reading = 117.5

[[record]]
compound = "COc1cccc(N2CC[C@H](NC(=O)CC(C)C)C2)c1 [Example 8]"
reading = 110.3

[[record]]
compound = "COc1cccc(N2CC[C@H](NC(C)=O)C2)c1 [Example 4]"
reading = 102.7

[[record]]
compound = "COc1ccc2[nH]cc(CCNC(C)=O)c2c1 [Melatonin, reference compound]"
reading = 100.5

[[record]]
compound = "CCC(=O)N[C@H]1CCN(c2cccc(OC)c2)C1 [Example 3]"
reading = 109.9

